# experimental-target: Renin (Homo sapiens)
# Sequence (P00797 whole entry): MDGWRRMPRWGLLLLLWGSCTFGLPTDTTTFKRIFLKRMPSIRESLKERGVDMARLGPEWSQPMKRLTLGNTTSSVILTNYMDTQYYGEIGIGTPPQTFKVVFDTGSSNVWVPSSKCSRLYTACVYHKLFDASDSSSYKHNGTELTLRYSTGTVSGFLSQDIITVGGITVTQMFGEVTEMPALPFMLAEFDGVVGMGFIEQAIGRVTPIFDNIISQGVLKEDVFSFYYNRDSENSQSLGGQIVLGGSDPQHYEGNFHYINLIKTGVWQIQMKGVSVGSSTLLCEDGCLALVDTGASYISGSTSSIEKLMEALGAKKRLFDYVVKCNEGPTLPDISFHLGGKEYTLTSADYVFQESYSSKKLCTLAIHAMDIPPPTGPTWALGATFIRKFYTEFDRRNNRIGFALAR
# assay-protocol: In vitro potency against plasma renin at a pH of 7.4
# Assay type: cell-free
pIC50: −log10 of the molar value.
observable: pIC50

| smiles-str | experimental-target | observable | quantitative-result |
| --- | --- | --- | --- |
| CCCCNC(=O)[C@@H](C[C@H](O)[C@H](CC1CCCCC1)NC(=O)[C@H](CCCC)O[C@@H](Cc1ccccc1)C(=O)N1CCC(OCOC)CC1)C(C)C | Renin (Homo sapiens) | pIC50 | 8.09 |

(a) CCCC[C@H](O[C@@H](Cc1ccccc1)C(=O)N1CCC(OCOC)CC1)C(=O)N[C@@H](CC1CCCCC1)[C@@H](O)[C@@H](O)CC(C)C
(b) CC[C@H](O[C@@H](Cc1ccccc1)C(=O)N1CCC(OCOC)CC1)C(=O)N[C@@H](CC1CCCCC1)[C@@H](O)[C@@H](O)CC(C)C
Which record would sort first by descending pIC50, a or b ? Write the label of whichever entry you select.
a
(a: 7.89, b: 6.92)
